- Target or system: clade 2.1 HPAI H5N1 isolates from Indonesia (neuraminidase) (Influenza A virus)
- Format: biochemical, HPAI H5N1 avian influenza virus
- Test settings: read-out: IC50s of many of the outliers
pIC50: −log10 of the molar value.
Measurement kind: pIC50

Record CCOC(=O)C1=C[C@@H](OC(CC)CC)[C@H](NC(C)=O)[C@@H](N)C1 [Oseltamivir, oseltamivir] , field pIC50: < 7.30

====

- Target or system: A/chicken/Bangli/BBVD-563/2007 neuraminidase (clade 2.1 wild type) (Influenza A virus)
- Format: biochemical, HPAI H5N1 avian influenza virus
- Test settings: read-out: 60 min IC50, Preincubation step (−)
IC50 by entry:

Smiles string	Measurement kind	Recorded measurement
CCOC(=O)C1=C[C@@H](OC(CC)CC)[C@H](NC(C)=O)[C@@H](N)C1	IC50	21.4 nM

# context switch: different molecule, same IC50
Record CCC(CC)[C@H](NC(C)=O)[C@@H]1[C@H](O)[C@@H](C(=O)O)C[C@H]1N=C(N)N , field IC50: 5.4 nM
